PROCEDURE_TEXT: Sulforhodamine B (SRB) cytotoxicity assay
RECORDED_CONDITIONS: human, A172 glioblastoma cells
MEASURED_METRIC: viability at 72 h, 7.82 µM (%)

INSERT INTO measurements (test_smiles, readout_value) VALUES
  ('Cn1c(=S)c2[nH]c(SCCN3CCOCC3)nc2n(C)c1=O', 96.7),
  ('C[C@]1(c2nc3c(C(N)=O)cccc3[nH]2)CCCN1', 104);

----------
PROCEDURE_TEXT: Sulforhodamine B (SRB) cytotoxicity assay
RECORDED_CONDITIONS: human, A172 glioblastoma cells
Quick list: viability at 72 h, 0.977 µM per entry.
MEASURED_METRIC: viability at 72 h, 0.977 µM (%)

INSERT INTO measurements (test_smiles, unit_descriptor, readout_value) VALUES
  ('Cn1c(=S)c2[nH]c(SCCN3CCOCC3)nc2n(C)c1=O', '%', 99.4),
  ('C[C@]1(c2nc3c(C(N)=O)cccc3[nH]2)CCCN1', '%', 102);

----------
PROCEDURE_TEXT: Sulforhodamine B (SRB) cytotoxicity assay
RECORDED_CONDITIONS: human, PC3 cells, Viability, +IR 7 Gy, log [concentration] μM 1.194
MEASURED_METRIC: viability at 72 h, 15.6 µM

INSERT INTO assay_data (test_smiles, readout_value) VALUES
  ('Cn1c(=S)c2[nH]c(SCCN3CCOCC3)nc2n(C)c1=O', '96.6%');

----------
Measured viability at 72 h, 1.95 µM, listed per entry for reference.
PROCEDURE_TEXT: Sulforhodamine B (SRB) cytotoxicity assay
Type: cell-based, human
RECORDED_CONDITIONS: human, MRC-5 cells; log [concentration] μM 0.29
MEASURED_METRIC: viability at 72 h, 1.95 µM (%)

INSERT INTO measurements (test_smiles, unit_descriptor, readout_value) VALUES
  ('C[C@]1(c2nc3c(C(N)=O)cccc3[nH]2)CCCN1', '%', 90.5),
  ('Cn1c(=S)c2[nH]c(SCCN3CCOCC3)nc2n(C)c1=O', '%', 98.4);

----------
PROCEDURE_TEXT: Sulforhodamine B (SRB) cytotoxicity assay
RECORDED_CONDITIONS: human, PC3 cells, Viability, without IR, log [concentration] μM 2.097
MEASURED_METRIC: viability at 72 h, 125 µM (%)

INSERT INTO results (test_smiles, measured_metric, readout_value) VALUES
  ('Cn1c(=S)c2[nH]c(SCCN3CCOCC3)nc2n(C)c1=O', 'viability at 72 h, 125 µM', 4.07);

----------
PROCEDURE_TEXT: Sulforhodamine B (SRB) cytotoxicity assay
Type: cell-based, human
RECORDED_CONDITIONS: human, MRC-5 cells; log [concentration] μM 2.4
MEASURED_METRIC: viability at 72 h, 251 µM (%)

INSERT INTO results (test_smiles, measured_metric, readout_value) VALUES
  ('Cn1c(=S)c2[nH]c(SCCN3CCOCC3)nc2n(C)c1=O', 'viability at 72 h, 251 µM', 28.2),
  ('C[C@]1(c2nc3c(C(N)=O)cccc3[nH]2)CCCN1', 'viability at 72 h, 251 µM', 58.2);

----------
PROCEDURE_TEXT: Sulforhodamine B (SRB) cytotoxicity assay
RECORDED_CONDITIONS: human, PC3 cells, Viability, without IR, log [concentration] μM 2.699
MEASURED_METRIC: viability at 72 h, 500 µM

INSERT INTO results (test_smiles, measured_metric, readout_value) VALUES
  ('Cn1c(=S)c2[nH]c(SCCN3CCOCC3)nc2n(C)c1=O', 'viability at 72 h, 500 µM', '4.21%');

----------
PROCEDURE_TEXT: Sulforhodamine B (SRB) cytotoxicity assay
Format: cell-based, human
RECORDED_CONDITIONS: human, MRC-5 cells; log [concentration] μM -0.41
Description: Fig. 6 Selective inhibition of PARG by xanthine derivative JA2131. a Clonogenic survival assays of PC3, MDA-MB-231, and MCF-7 cells treated with PARGi. Cells were treated with either DMSO or 10 µM JA2131 for 2 h, irradiated with 3 Gy (MDA-MB-231 and MCF-7), 7 Gy (PC3) IR and grown for ~2 weeks, then colonies were fixed with methanol and stained with crystal violet. The results of three independent experiments are shown. […]
MEASURED_METRIC: viability at 72 h, 0.389 µM (%)

INSERT INTO assay_data (test_smiles, measured_metric, readout_value) VALUES
  ('COc1cccc2c1C(=O)c1c(O)c3c(c(O)c1C2=O)C[C@@](O)(C(=O)CO)C[C@@H]3O[C@H]1C[C@H](N)[C@H](O)[C@H](C)O1', 'viability at 72 h, 0.389 µM', 96.5);

----------
PROCEDURE_TEXT: Sulforhodamine B (SRB) cytotoxicity assay
RECORDED_CONDITIONS: human, PC3 cells, Viability, +IR 7.0 Gy, log [concentration] μM 0.892818
MEASURED_METRIC: viability at 72 h, 7.81 µM (%)

INSERT INTO results (compound, measured_metric, unit_descriptor, readout_value) VALUES
  ('O=C(c1cc(Cc2n[nH]c(=O)c3ccccc23)ccc1F)N1CCN(C(=O)C2CC2)CC1 [Olaparib, reference compound]', 'viability at 72 h, 7.81 µM', '%', 101);

----------
PROCEDURE_TEXT: Sulforhodamine B (SRB) cytotoxicity assay
RECORDED_CONDITIONS: human, PC3 cells, Viability, without IR, log [concentration] μM -0.107
MEASURED_METRIC: viability at 72 h, 0.78 µM (%)

INSERT INTO measurements (test_smiles, readout_value) VALUES
  ('COc1cccc2c1C(=O)c1c(O)c3c(c(O)c1C2=O)C[C@@](O)(C(=O)CO)C[C@@H]3O[C@H]1C[C@H](N)[C@H](O)[C@H](C)O1', 58.5);

----------
PROCEDURE_TEXT: Sulforhodamine B (SRB) cytotoxicity assay
Type: cell-based, human
RECORDED_CONDITIONS: human, MRC-5 cells; log [concentration] μM -0.01
MEASURED_METRIC: viability at 72 h, 0.977 µM

INSERT INTO results (test_smiles, readout_value) VALUES
  ('C[C@]1(c2nc3c(C(N)=O)cccc3[nH]2)CCCN1', '89.2%'),
  ('Cn1c(=S)c2[nH]c(SCCN3CCOCC3)nc2n(C)c1=O', '93.5%');

----------
PROCEDURE_TEXT: Sulforhodamine B (SRB) cytotoxicity assay
RECORDED_CONDITIONS: human, PC3 cells, Viability, without IR, log [concentration] μM -0.01
MEASURED_METRIC: viability at 72 h, 0.98 µM (%)

INSERT INTO assay_data (molecule, measured_metric, readout_value) VALUES
  ('Cn1c(=S)c2[nH]c(SCCN3CCOCC3)nc2n(C)c1=O [JA2131]', 'viability at 72 h, 0.98 µM', 99.2);

----------
MEASURED_ON: Human PARG (Homo sapiens, UniProt Q86W56)
Construct: The human PARG (hPARG) catalytic domain (residues 389–976) was cloned in pET28a (Novagen); His-tag (N); made in house; host or cells: E. coli Rosetta
Sequence (Q86W56 389-976): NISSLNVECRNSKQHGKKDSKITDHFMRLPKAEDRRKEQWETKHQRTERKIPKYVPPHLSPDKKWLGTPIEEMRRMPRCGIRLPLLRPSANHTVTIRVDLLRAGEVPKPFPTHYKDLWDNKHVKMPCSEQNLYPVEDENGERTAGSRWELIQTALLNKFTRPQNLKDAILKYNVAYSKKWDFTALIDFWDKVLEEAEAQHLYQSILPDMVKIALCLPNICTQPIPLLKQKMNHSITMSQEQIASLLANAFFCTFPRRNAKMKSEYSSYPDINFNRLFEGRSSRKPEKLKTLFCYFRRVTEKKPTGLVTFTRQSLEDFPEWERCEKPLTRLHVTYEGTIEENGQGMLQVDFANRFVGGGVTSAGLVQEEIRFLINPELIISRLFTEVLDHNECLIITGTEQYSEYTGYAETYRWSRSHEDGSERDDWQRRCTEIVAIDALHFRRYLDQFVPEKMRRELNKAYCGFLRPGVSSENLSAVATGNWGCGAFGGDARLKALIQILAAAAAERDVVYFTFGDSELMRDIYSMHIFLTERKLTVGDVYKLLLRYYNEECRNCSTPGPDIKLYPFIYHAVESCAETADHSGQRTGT
PROCEDURE_TEXT: Gel-based PARG activity assay
Assay type: biochemical
RECORDED_CONDITIONS: [L] 12.5 uM
# key: entry, value: inhibition at 12.5 µM
MEASURED_METRIC: inhibition at 12.5 µM (%)

INSERT INTO results (test_smiles, measured_on, measured_metric, unit_descriptor, readout_value) VALUES
  ('Cn1c(=S)c2nc(SCCN3CCCC3)[nH]c2n(C)c1=O', 'Human PARG (Homo sapiens, UniProt Q86W56)', 'inhibition at 12.5 µM', '%', 87.5),
  ('Cn1c(=O)c2[nH]c(SCCN3CCOCC3)nc2n(C)c1=S', 'Human PARG (Homo sapiens, UniProt Q86W56)', 'inhibition at 12.5 µM', '%', 89.1),
  ('Cn1c(=S)c2[nH]c(SCCN3CCOCC3)nc2n(C)c1=O', 'Human PARG (Homo sapiens, UniProt Q86W56)', 'inhibition at 12.5 µM', '%', 99.5),
  ('Cn1c(=O)c2[nH]c(SCCN3CCOCC3)nc2n(C)c1=O', 'Human PARG (Homo sapiens, UniProt Q86W56)', 'inhibition at 12.5 µM', '%', 33.9);

----------
PROCEDURE_TEXT: Sulforhodamine B (SRB) cytotoxicity assay
RECORDED_CONDITIONS: human, PC3 cells, Viability, -IR, log [concentration] μM 3.30103
MEASURED_METRIC: viability at 72 h, 2000 µM (%)

INSERT INTO assay_data (compound, measured_metric, unit_descriptor, readout_value) VALUES
  ('O=C(c1cc(Cc2n[nH]c(=O)c3ccccc23)ccc1F)N1CCN(C(=O)C2CC2)CC1 [Olaparib, reference compound]', 'viability at 72 h, 2000 µM', '%', 6.26);
